assay_protocol: self-splicing fitness, log relative to wild type (ln ratio); higher = more splicing; Tetrahymena group I intron in knt gene, E. coli kanamycin selection, DiMSum; sequences stand for … in CUCUCU…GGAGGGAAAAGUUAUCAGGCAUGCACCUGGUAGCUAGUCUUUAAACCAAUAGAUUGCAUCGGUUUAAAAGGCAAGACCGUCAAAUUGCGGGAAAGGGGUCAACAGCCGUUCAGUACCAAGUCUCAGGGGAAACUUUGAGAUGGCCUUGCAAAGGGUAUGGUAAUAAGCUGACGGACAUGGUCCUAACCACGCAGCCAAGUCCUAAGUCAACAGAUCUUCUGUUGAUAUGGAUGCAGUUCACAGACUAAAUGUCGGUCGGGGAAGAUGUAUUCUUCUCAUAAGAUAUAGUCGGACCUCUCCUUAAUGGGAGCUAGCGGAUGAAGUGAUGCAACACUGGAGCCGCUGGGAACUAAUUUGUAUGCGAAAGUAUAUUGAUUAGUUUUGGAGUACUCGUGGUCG;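 further: selection with 25 µg/mL kanamycin versus none on LB agar overnight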
assay_context: 30 °C
Label rule, in plain words: self-splicing fitness (ln) of -3 and up is class 1, under -3 is class 0.

>>> class_assignment("CACAAGCAAUAUUACGAUGG")
"class 1"
>>> class_assignment("GUUAAGCAAUAUUACGCGUG")
"class 1"
>>> class_assignment("UCGGAGCAAUAUUACGGUUG")
"class 0"
>>> class_assignment("UUCCAGCAAUAUUACGCUCA")
"class 1"
>>> class_assignment("GCGAAGCAAUAUUACGGAAG")
"class 1"
>>> class_assignment("CCACAGCAAUAUUACGCCAC")
"class 0"
